Test system: primary rat AEC
Condition Context: captopril 500 ng/ml, saralasin 50 ug/ml, Losartan 5 pg/ml; amiodarone 2.5 ug/ml for chelerythrine, orthovanadate
Measurement Type: inhibition of amiodarone-induced apoptosis

[[record]]
compound = "[Na+].[Na+].[Na+].[O]=[V]([O-])([O-])[O-] [sodium orthovanadate]"
val = "not"

[[record]]
compound = "CNCC(=O)N[C@@H](CCCN=C(N)N)C(=O)N[C@H](C(=O)N[C@@H](Cc1ccc(O)cc1)C(=O)N[C@H](C(=O)N[C@@H](Cc1cnc[nH]1)C(=O)N1CCC[C@H]1C(=O)N[C@@H](C)C(=O)O)C(C)C)C(C)C [saralasin]"
val = "inhibited"

[[record]]
compound = "C[C@H](CS)C(=O)N1CCC[C@H]1C(=O)O [captopril]"
val = "inhibited"

